All figures here come from patent US8809361B2.

# experimental_target: human GPR119 (Homo sapiens, UniProt Q8TDV5)
# Construct: expression vector for human GPR119 cDNA (Acc. No. NP_848566)
# Sequence (Q8TDV5 1-335): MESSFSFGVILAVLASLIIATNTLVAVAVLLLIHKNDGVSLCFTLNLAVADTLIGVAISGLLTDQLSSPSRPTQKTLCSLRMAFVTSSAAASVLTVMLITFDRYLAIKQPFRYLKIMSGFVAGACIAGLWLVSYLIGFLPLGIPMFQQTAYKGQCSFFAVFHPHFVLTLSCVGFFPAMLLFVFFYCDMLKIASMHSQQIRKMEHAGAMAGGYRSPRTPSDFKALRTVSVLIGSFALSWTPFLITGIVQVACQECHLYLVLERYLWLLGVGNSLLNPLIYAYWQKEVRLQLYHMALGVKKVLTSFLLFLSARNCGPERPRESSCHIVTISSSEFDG
# assay_overview: GPR119 activation / intracellular cAMP stimulation, AlphaScreen cAMP Assay in Min-6/hGPR119 cells
# assay_context: MIN6 cells stably transfected with human GPR119, 45 minutes incubation at room temperature
pEC50: −log10 of the molar value.
Decide by pEC50: equal to or exceeding 8 means TRUE, less means FALSE.

CC(C)(C)OC(=O)N1CCC2(CC1)CC1(Cc3cc(-c4ccc(S(C)(=O)=O)cc4)ncc3O1)C2 ... FALSE
CC(C)(F)CN1CCC2(CC1)CC1(Cc3cc(-c4ccc(S(C)(=O)=O)cc4)ncc3O1)C2 ... FALSE
CC(C)(C)OC(=O)N1CCC2(CC1)CC1(Cc3cc(N4CCN(S(C)(=O)=O)CC4)ncc3O1)C2 ... FALSE
CC(C)(C)OC(=O)N1CCC2(CC1)CC1(Cc3cc(-c4ccc(S(C)(=O)=O)cc4C#N)ncc3O1)C2 ... TRUE
CCCc1cnc(N2CCC3(CC2)CC2(Cc4cc(C5=CCN(S(C)(=O)=O)CC5)ncc4O2)C3)nc1 ... TRUE
CS(=O)(=O)c1ccc(-c2cc3c(cn2)OC2(C3)CC3(CCN(CC4(C(F)(F)F)CC4)CC3)C2)cc1 ... FALSE
CC(C)(C)OC(=O)N1CCC2(CC1)CC1(Cc3cc(-c4ccc(CS(C)(=O)=O)cc4)ncc3O1)C2 ... FALSE
CC(C)c1nc(N2CCC3(CC2)CC2(Cc4cc(C5=CCN(S(C)(=O)=O)CC5)ncc4O2)C3)no1 ... TRUE

Please indicate if the recorded pEC50 for `CCc1cnc(N2CCC3(CC2)CC2(Cc4cc(-c5ccc(S(C)(=O)=O)cc5)ncc4O2)C3)nc1` meets or exceeds 8.
FALSE

Please indicate if the recorded pEC50 for `CC(C)(C)OC(=O)N1CCC2(CC1)CC1(Cc3cc(-c4ccc(C#N)cc4F)ncc3O1)C2` meets or exceeds 8.
FALSE

Please indicate if the recorded pEC50 for `CCNC(=O)c1ccc(-c2cc3c(cn2)OC2(C3)CC3(CCN(C(=O)OC(C)(C)C)CC3)C2)cc1` meets or exceeds 8.
FALSE

Please indicate if the recorded pEC50 for `CC1=C(c2cc3c(cn2)OC2(C3)CC3(CCN(C(=O)OC(C)(C)C)CC3)C2)CCN(S(C)(=O)=O)C1` meets or exceeds 8.
FALSE

* * *

# experimental_target: human GPR119 (Homo sapiens, UniProt Q8TDV5)
# Construct: expression vector for human GPR119 cDNA (Acc. No. NP_848566)
# assay_overview: GPR119 activation / intracellular cAMP stimulation, AlphaScreen cAMP Assay in Min-6/hGPR119 cells
# assay_context: MIN6 cells stably transfected with human GPR119, 45 minutes incubation at room temperature
Entries and their EC50
Report only the number, with the unit nM understood.

Provide EC50 value for the following molecule: CS(=O)(=O)N1CC=C(c2cc3c(cn2)OC2(C3)CC3(CCN(c4ncc(C(F)(F)F)cn4)CC3)C2)CC1 [Example 32]
6

Provide EC50 value for the following molecule: CC1(OC(=O)N2CCC3(CC2)CC2(Cc4cc(C5=CCN(S(C)(=O)=O)CC5)ncc4O2)C3)CC1 [Example 12]
11

Provide EC50 value for the following molecule: CC(C)c1noc(N2CCC3(CC2)CC2(Cc4cc(C5=CCN(S(C)(=O)=O)CC5)ncc4O2)C3)n1 [Example 23]
12

Provide EC50 value for the following molecule: CS(=O)(=O)N1CC=C(c2cc3c(cn2)OC2(C3)CC3(CCN(c4nnc(C(F)(F)F)s4)CC3)C2)CC1 [Example 20]
10

Provide EC50 value for the following molecule: CCc1cnc(N2CCC3(CC2)CC2(Cc4cc(C5=CCN(S(C)(=O)=O)CC5)ncc4O2)C3)nc1 [Example 28]
11

Provide EC50 value for the following molecule: C[C@@H](OC(=O)N1CCC2(CC1)CC1(Cc3cc(C4=CCN(S(C)(=O)=O)CC4)ncc3O1)C2)C(F)(F)F [Example 33]
8

Provide EC50 value for the following molecule: CS(=O)(=O)N1CC=C(c2cc3c(cn2)OC2(C3)CC3(CCN(c4ncc(Cl)cn4)CC3)C2)CC1 [Example 9]
6

Provide EC50 value for the following molecule: CCCc1nc(N2CCC3(CC2)CC2(Cc4cc(C5=CCN(S(C)(=O)=O)CC5)ncc4O2)C3)no1 [Example 26]
8

Provide EC50 value for the following molecule: CC(C)OC(=O)N1CCC2(CC1)CC1(Cc3cc(C4=CCN(S(C)(=O)=O)CC4)ncc3O1)C2 [Example 10]
16

Provide EC50 value for the following molecule: CCCc1noc(N2CCC3(CC2)CC2(Cc4cc(C5=CCN(S(C)(=O)=O)CC5)ncc4O2)C3)n1 [Example 24]
10
